biological target: RPS6KA4 KD2 (human); assay: KINOMEscan competition binding; conditions: compound 10.0 µM
For each record, write down the corresponding kinase still bound, per cent of control.
Reply with the number and its unit after it.

// fetch kinase still bound, per cent of control; item: N#C/C(=C1/Nc2ccccc2S1)c1ccnc(NCCc2cccnc2)n1 ; system: RPS6KA4 KD2 (human)
57%

Please look at N#Cc1cc(-c2ccnc(Nc3ccc(-n4cnc(-c5cccnc5)n4)cc3)n2)cc(N2CCOCC2)c1 and tell me its recorded kinase still bound, per cent of control on RPS6KA4 KD2 (human).
100%

Write kinase still bound, per cent of control of CNC(=O)Nc1ccc(-c2nc(N3CC4CCC(C3)O4)c3cnn(C4CCC5(CC4)OCCO5)c3n2)cc1 ; system used: RPS6KA4 KD2 (human)
100%

# lookup: RPS6KA4 KD2 (human) kinase still bound, per cent of control, key = COc1cc(C)c(Sc2cnc(NC(=O)c3ccc(CNC(C)C(C)C)cc3)s2)cc1C(=O)N1CCN(C(C)=O)CC1 (centres undefined)
100%

Check RPS6KA4 KD2 (human) data and give kinase still bound, per cent of control for CC(=O)c1c(C)c2cnc(Nc3ccc(N4CCNCC4)cn3)nc2n(C2CCCC2)c1=O .
3.2%

With RPS6KA4 KD2 (human) as the test system, provide measured kinase still bound, per cent of control for this compound: CCCS(=O)(=O)Nc1ccc(F)c(C(=O)c2c[nH]c3ncc(Cl)cc23)c1F
69%

GET kinase still bound, per cent of control where system = RPS6KA4 KD2 (human) and item = COc1cc2c(Nc3ccc(NC(=O)c4ccccc4)cc3)ncnc2cc1OCCCN1CCOCC1
100%

For RPS6KA4 KD2 (human), give kinase still bound, per cent of control of the listed compound: Cc1cn(-c2cc(C(=O)Nc3ccc(C)c(NC(=O)c4ccno4)c3)cc(C(F)(F)F)c2)cn1
100%

Provide the reported kinase still bound, per cent of control (system: RPS6KA4 KD2 (human)) for COc1cc(N2CCC(C(N)=O)CC2)ccc1Nc1nc(N)c(Cl)c(Nc2ccccc2S(=O)(=O)C(C)C)n1
100%

---

Kindly supply the reported kinase still bound, per cent of control values for the records listed here.
molecular target: CLK2 (human) (UniProt P49760); assay: KINOMEscan competition binding; details: compound 10.0 µM
Sequence (P49760 whole entry, looked up): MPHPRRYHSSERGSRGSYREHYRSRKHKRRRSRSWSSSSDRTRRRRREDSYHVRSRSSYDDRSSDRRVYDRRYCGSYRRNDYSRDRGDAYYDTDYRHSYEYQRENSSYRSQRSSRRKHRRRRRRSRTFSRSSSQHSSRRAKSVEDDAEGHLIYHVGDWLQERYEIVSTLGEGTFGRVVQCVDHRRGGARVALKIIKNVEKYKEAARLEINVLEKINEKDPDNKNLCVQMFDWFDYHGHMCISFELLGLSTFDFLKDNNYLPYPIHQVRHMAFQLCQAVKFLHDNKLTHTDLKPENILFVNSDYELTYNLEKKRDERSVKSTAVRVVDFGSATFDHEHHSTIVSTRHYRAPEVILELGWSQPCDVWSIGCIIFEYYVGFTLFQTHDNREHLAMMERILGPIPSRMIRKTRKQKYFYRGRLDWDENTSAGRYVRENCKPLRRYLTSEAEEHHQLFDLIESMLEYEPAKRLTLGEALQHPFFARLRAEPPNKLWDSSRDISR
Note: a bare number is incomplete; add the unit.

Fill in reported kinase still bound, per cent of control for this entry: N#C/C(=C1/Nc2ccccc2S1)c1ccnc(NCCc2cccnc2)n1
3.7%

Answer with the recorded kinase still bound, per cent of control of COc1cc2c(Nc3ccc(NC(=O)c4ccccc4)cc3)ncnc2cc1OCCCN1CCOCC1 only.
80%

Specify measured kinase still bound, per cent of control for C=CC(=O)Nc1ccc(C(=O)c2sc(Nc3ccc(N4CCN(C)CC4)cc3OC)nc2N)cc1 .
0%

Kindly indicate its recorded kinase still bound, per cent of control. Item: COc1cc2ncnc(Nc3cccc(Cl)c3)c2cc1OC
53%

Return reported kinase still bound, per cent of control. Input compound: Cc1cn(-c2cc(C(=O)Nc3ccc(C)c(NC(=O)c4ccno4)c3)cc(C(F)(F)F)c2)cn1
100%

Answer with reported kinase still bound, per cent of control of COc1ccc(N(C(=O)Oc2cc(C(=O)Nc3cccc(C(F)(F)F)c3)ccc2C)c2ccnc(Nc3ccc(N4CCN(C)CC4)cc3)n2)c(OC)c1
100%

For the compound CNC(=O)Nc1ccc(-c2nc(N3CC4CCC(C3)O4)c3cnn(C4CCC5(CC4)OCCO5)c3n2)cc1 , report kinase still bound, per cent of control.
98%

Give reported kinase still bound, per cent of control value for COc1cc(C)c(Sc2cnc(NC(=O)c3ccc(CNC(C)C(C)C)cc3)s2)cc1C(=O)N1CCN(C(C)=O)CC1 (centres undefined)
3.7%

Quickly give me recorded kinase still bound, per cent of control for CCCS(=O)(=O)Nc1ccc(F)c(C(=O)c2c[nH]c3ncc(Cl)cc23)c1F
10%
